- Tested on: EMC-BAC-2
- method description: relative viability (nuclei count vs DMSO), 5 days (fraction); higher = more cells survive
- reported conditions: first compound 0.1581 µM
Let's look at some compounds and their measured relative viability.
Please reply with the value in numeric form only.

Here are 2 compounds together with their reported answers.
CC1(C)CCC(c2ccc(Cl)cc2)=C(CN2CCN(c3ccc(C(=O)NS(=O)(=O)c4ccc(N[C@H](CCN5CCOCC5)CSc5ccccc5)c(S(=O)(=O)C(F)(F)F)c4)cc3)CC2)C1 [Navitoclax] + Cc1cc(Nc2cc(N3CCN(C)CC3)nc(Sc3ccc(NC(=O)C4CC4)cc3)n2)n[nH]1 [Tozasertib] (partner 0.1 µM)	0.273
CC1(C)CCC(c2ccc(Cl)cc2)=C(CN2CCN(c3ccc(C(=O)NS(=O)(=O)c4ccc(N[C@H](CCN5CCOCC5)CSc5ccccc5)c(S(=O)(=O)C(F)(F)F)c4)cc3)CC2)C1 [Navitoclax] + C[C@@H](Oc1cc(-c2cnn(C3CCNCC3)c2)cnc1N)c1c(Cl)ccc(F)c1Cl [Crizotinib] (partner 1 µM)	0.703

# evaluate next
Provide only the value of recorded relative viability for CC1(C)CCC(c2ccc(Cl)cc2)=C(CN2CCN(c3ccc(C(=O)NS(=O)(=O)c4ccc(N[C@H](CCN5CCOCC5)CSc5ccccc5)c(S(=O)(=O)C(F)(F)F)c4)cc3)CC2)C1 [Navitoclax] + COc1cc2c(Oc3ccc(NC(=O)C4(C(=O)Nc5ccc(F)cc5)CC4)cc3F)ccnc2cc1OCCCN1CCOCC1 [Foretinib] (partner 0.25 µM) 1.01

All figures here come from the supplement of paper PMC10307832.
